Cited source: ChEMBL document CHEMBL1770085

// Cholinesterase (Homo sapiens, UniProt P06276) IC50 records
Your answer should be a plain number; it is taken to be in nM.

Provide IC50, system Cholinesterase (Homo sapiens, UniProt P06276), entry c1cc(C[n+]2ccc(N3CCCCC3)cc2)cc(-c2cccc(C[n+]3ccc(N4CCCCC4)cc3)c2)c1
330

Retrieve IC50 on Cholinesterase (Homo sapiens, UniProt P06276); query c1cc(C[n+]2ccc(N3CCCCC3)cc2)ccc1C[n+]1ccc(N2CCCCC2)cc1
Sequence (P06276 whole entry): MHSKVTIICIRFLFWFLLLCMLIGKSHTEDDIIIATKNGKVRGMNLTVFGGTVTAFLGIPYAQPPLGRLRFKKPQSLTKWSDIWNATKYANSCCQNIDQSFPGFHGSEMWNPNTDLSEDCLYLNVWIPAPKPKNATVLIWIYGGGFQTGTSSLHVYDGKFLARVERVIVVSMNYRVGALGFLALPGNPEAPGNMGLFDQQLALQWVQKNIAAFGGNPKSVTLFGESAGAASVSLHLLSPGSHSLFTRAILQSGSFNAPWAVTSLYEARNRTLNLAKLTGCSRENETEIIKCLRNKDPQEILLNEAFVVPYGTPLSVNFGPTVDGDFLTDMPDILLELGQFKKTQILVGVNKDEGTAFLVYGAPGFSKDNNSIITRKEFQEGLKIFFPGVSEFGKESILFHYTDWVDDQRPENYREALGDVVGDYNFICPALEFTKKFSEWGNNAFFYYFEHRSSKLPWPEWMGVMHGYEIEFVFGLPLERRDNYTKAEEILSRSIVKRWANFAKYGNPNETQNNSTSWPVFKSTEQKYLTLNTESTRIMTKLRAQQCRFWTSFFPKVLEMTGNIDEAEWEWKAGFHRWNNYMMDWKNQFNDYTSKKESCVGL
610

Give IC50 only, for c1cc(C[N+]23CCC(CC2)CC3)cc(-c2cccc(C[N+]34CCC(CC3)CC4)c2)c1 , using Cholinesterase (Homo sapiens, UniProt P06276) data.
36

====

Tested Target: Acetylcholinesterase (Bos taurus, UniProt P23795)
Sequence (P23795 whole entry): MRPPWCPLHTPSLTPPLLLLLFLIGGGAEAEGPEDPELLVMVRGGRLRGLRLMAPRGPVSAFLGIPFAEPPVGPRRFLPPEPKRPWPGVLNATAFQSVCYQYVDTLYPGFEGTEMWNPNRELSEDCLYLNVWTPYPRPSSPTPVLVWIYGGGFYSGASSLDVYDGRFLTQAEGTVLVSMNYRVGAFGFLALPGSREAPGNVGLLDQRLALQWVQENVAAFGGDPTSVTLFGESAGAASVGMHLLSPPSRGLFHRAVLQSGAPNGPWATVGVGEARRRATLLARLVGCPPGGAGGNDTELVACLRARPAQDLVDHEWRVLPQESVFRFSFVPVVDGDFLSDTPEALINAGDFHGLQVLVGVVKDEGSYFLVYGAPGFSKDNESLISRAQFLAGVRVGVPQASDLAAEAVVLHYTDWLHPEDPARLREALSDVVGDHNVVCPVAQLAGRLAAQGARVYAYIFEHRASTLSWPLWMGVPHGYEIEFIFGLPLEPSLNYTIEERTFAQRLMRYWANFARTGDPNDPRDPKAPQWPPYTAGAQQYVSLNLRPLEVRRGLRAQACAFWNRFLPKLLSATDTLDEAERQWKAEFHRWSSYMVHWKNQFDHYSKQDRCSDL
# maps each entry to its pIC50
Please treat pIC50 as minus the base-10 logarithm of the molar concentration.

Below, 3 compounds whose answers are already recorded.
{"Smiles": "c1cc(C[n+]2ccc(N3CCOCC3)cc2)ccc1CCc1ccc(C[n+]2ccc(N3CCOCC3)cc2)cc1", "Tested Target": "Acetylcholinesterase (Bos taurus, UniProt P23795)", "Property": "pIC50", "Result": 5.57}
{"Smiles": "c1cc(-c2ccc(C[n+]3ccc(N4CCCCC4)cc3)cc2)ccc1C[n+]1ccc(N2CCCCC2)cc1", "Tested Target": "Acetylcholinesterase (Bos taurus, UniProt P23795)", "Property": "pIC50", "Result": 6.80}
{"Smiles": "c1cc(C[n+]2ccc(N3CCCC3)cc2)ccc1CCc1ccc(C[n+]2ccc(N3CCCC3)cc2)cc1", "Tested Target": "Acetylcholinesterase (Bos taurus, UniProt P23795)", "Property": "pIC50", "Result": 6.41}

Tell us which pIC50 value is on record for c1ccc2c(c1)CCN(c1cc[n+](Cc3ccc(C[n+]4ccc(N5CCc6ccccc6C5)cc4)cc3)cc1)C2
6.90

====

Tested Target: Acetylcholinesterase (Bos taurus, UniProt P23795)
Sequence (P23795 whole entry): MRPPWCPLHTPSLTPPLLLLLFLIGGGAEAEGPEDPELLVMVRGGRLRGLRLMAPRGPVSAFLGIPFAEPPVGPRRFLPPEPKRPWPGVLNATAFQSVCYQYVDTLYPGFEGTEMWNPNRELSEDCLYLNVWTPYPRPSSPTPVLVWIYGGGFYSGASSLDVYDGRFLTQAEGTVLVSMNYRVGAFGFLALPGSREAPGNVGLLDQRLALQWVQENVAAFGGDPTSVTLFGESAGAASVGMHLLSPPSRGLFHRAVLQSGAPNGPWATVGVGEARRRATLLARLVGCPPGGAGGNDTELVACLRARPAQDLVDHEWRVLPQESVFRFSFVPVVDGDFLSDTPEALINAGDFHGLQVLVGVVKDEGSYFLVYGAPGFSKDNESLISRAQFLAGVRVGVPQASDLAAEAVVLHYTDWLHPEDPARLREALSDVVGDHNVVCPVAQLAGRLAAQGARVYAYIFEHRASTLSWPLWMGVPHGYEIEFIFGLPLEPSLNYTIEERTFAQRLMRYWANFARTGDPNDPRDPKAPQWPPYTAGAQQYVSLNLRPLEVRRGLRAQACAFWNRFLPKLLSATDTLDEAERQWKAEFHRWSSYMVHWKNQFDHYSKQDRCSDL
Property: IC50 (µM)
Write down the numeric answer in µM and omit the unit.

As a guide, the following entries are already answered.
{"Compound": "COc1cc2c(cc1OC)CN(c1cc[n+](Cc3cccc(-c4cccc(C[n+]5ccc(N6CCc7cc(OC)c(OC)cc7C6)cc5)c4)c3)cc1)CC2", "Tested Target": "Acetylcholinesterase (Bos taurus, UniProt P23795)", "Result": 0.519}
{"Compound": "CN(C)c1cc[n+](Cc2cc(C[n+]3ccc(N(C)C)cc3)cc(C[n+]3ccc(N(C)C)cc3)c2)cc1", "Tested Target": "Acetylcholinesterase (Bos taurus, UniProt P23795)", "Result": 2.75}
{"Compound": "c1cc(C[n+]2ccc(N3CCCCC3)cc2)ccc1CCc1ccc(C[n+]2ccc(N3CCCCC3)cc2)cc1", "Tested Target": "Acetylcholinesterase (Bos taurus, UniProt P23795)", "Result": 0.079}
{"Compound": "COc1cc2c(cc1OC)CN(c1cc[n+](Cc3cccc(C[n+]4ccc(N5CCc6cc(OC)c(OC)cc6C5)cc4)c3)cc1)CC2", "Tested Target": "Acetylcholinesterase (Bos taurus, UniProt P23795)", "Result": 2.1}
{"Compound": "c1ccc2c(c1)CCN(c1cc[n+](Cc3ccc(-c4ccc(C[n+]5ccc(N6CCc7ccccc7C6)cc5)cc4)cc3)cc1)C2", "Tested Target": "Acetylcholinesterase (Bos taurus, UniProt P23795)", "Result": 0.346}
{"Compound": "Cc1c[n+](Cc2cccc(-c3cccc(C[n+]4cc(C)c(N)c5ccccc54)c3)c2)c2ccccc2c1N", "Tested Target": "Acetylcholinesterase (Bos taurus, UniProt P23795)", "Result": 0.497}

Look up and state reported IC50 for OC1C[N+]2(Cc3ccc(/C=C/c4ccc(C[N+]56CCC(CC5)C(O)C6)cc4)cc3)CCC1CC2 (configuration not stated)
0.141

Give the reported IC50 for this compound. c1cc(C[n+]2ccc(N3CCCC3)cc2)ccc1Cc1ccc(C[n+]2ccc(N3CCCC3)cc2)cc1
0.183

Kindly indicate its recorded IC50. Item: c1cc(C[n+]2ccc(N3CCCCC3)cc2)cc(C[n+]2ccc(N3CCCCC3)cc2)c1
0.114

Please give the documented IC50 of c1ccc(C[n+]2ccc(N3CCCC3)cc2)cc1
5.53

Name the recorded IC50 of the item CN(c1cc[n+](Cc2ccc(-c3ccc(C[n+]4ccc(N(C)c5cc(Cl)cc(Cl)c5)cc4)cc3)cc2)cc1)c1cc(Cl)cc(Cl)c1 in your answer.
2.87

In one line, give reported IC50 of the entry CN(C)c1cc[n+](C[C@@H]2C[C@H]2C[n+]2ccc(N(C)C)cc2)cc1 (relative stereo) .
8.78

====

Quick reference for Ratio IC50 among some molecules
Measurement Description: Selectivity index, ratio of IC50 for equine BChE to IC50 for bovine AChE

Would you please look over these solved cases?
{"Smiles": "c1cc(C[n+]2ccc(N3CCCCC3)cc2)cc(-c2cccc(C[n+]3ccc(N4CCCCC4)cc3)c2)c1", "Property": "Ratio IC50", "Result": 6.9}
{"Smiles": "CN(c1cc[n+](Cc2ccc(C[n+]3ccc(N(C)c4cc(Cl)cc(Cl)c4)cc3)cc2)cc1)c1cc(Cl)cc(Cl)c1", "Property": "Ratio IC50", "Result": 0.31}

We now examine a further molecule.
Quote Ratio IC50 reported for c1cc(C[n+]2ccc(N3CCOCC3)cc2)ccc1CCc1ccc(C[n+]2ccc(N3CCOCC3)cc2)cc1 please.
1.7

====

Tested Target: Butyrylcholinesterase (Equus caballus, UniProt Q9N1N9)
Sequence (Q9N1N9 whole entry): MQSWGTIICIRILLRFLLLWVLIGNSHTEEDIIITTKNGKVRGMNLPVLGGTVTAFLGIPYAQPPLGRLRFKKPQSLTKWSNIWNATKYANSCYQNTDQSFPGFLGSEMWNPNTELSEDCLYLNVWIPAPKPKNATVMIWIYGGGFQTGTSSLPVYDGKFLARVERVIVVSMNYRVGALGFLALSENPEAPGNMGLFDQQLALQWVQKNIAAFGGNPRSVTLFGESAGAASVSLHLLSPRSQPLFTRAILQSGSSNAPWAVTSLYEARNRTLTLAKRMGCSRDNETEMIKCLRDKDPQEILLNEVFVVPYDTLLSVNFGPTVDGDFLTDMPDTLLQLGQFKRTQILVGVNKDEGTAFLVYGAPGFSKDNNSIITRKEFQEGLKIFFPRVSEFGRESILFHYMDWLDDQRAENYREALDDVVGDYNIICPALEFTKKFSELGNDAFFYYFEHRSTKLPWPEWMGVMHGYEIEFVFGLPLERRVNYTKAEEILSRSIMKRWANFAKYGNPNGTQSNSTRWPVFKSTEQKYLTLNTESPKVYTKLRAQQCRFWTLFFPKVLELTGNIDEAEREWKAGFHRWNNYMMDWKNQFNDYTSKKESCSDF
Property: pIC50
Notebook: values listed as pIC50 are -log10 of the concentration (mol/L).

These solved cases illustrate the format of a correct answer.
{"Smiles": "c1cc(C[n+]2ccc(N3CCOCC3)cc2)ccc1CCc1ccc(C[n+]2ccc(N3CCOCC3)cc2)cc1", "pIC50": 5.35}
{"Smiles": "c1cc(C[n+]2ccc(N3CCCCC3)cc2)cc(C[n+]2ccc(N3CCCCC3)cc2)c1", "pIC50": 6.47}

Param request: pIC50 | system Butyrylcholinesterase (Equus caballus, UniProt Q9N1N9) | item c1cc(C[n+]2ccc(NC3CCCCC3)cc2)ccc1CCCCc1ccc(C[n+]2ccc(NC3CCCCC3)cc2)cc1
6.69
